tested on: insulin receptor (IR); assay: Phosphotyrosine enzyme linked immunosorbent assay: pTyr on insulin receptor in NIH3T3 cells over-expressing human IR (H25 cells); conditions: Table I; concentration of the compound which produces the percentage increase in phosphotyrosine over the vanadate control; 90 min incubation, no insulin
For each record, write down the corresponding CONC..
Give bare numbers, in µM.

O=[N+]([O-])c1cnc(Sc2nnc(O)n2-c2ccccc2C(F)(F)F)s1    24
O=[N+]([O-])c1cnc(Sc2nnc(O)n2-c2ccccc2)s1    13
O=[N+]([O-])c1cnc(Sc2nc(-c3ccc(Cl)cc3)n[nH]2)s1    100
O=[N+]([O-])c1cnc(Sc2n[nH]c(-c3cccs3)n2)s1    77

Here's the next entry for you.
Exam item: Need CONC., item CC(C)(C)c1nc(Sc2ncc([N+](=O)[O-])s2)n[nH]1
Marked response: 4.1
